System: human lung large cell carcinoma, MDR negative (NCI-H460) cells
measurement-notes: 48-hour cellular proliferation assay (sulforhodamine staining), NCI-H460 cells
Assay type: cell-based
study-conditions: Homo sapiens, 10^−4 M compound, read-out: NCI-460 % inhibition at 10^−4 M
Where a name gives a salt, the structure may show the parent alone.
Catalogue of inhibition at 100 µM readings, one per entry.
Numeric answer only, unit % assumed.

In [3]: df
Out[3]:
                                   compound  unit_of_measurement  readout_value
0  COc1ccc(S(=O)(=O)Nc2cc(OC)c(OC)c(OC)c2)cc1N [Example 10, hydrochloride]                    %           99.6
1  COc1cc(S(=O)(=O)Nc2ccc3c(ccn3C)c2)cc(OC)c1OC [Example 23]                    %            100
2  COc1ccc(CSc2cc(OC)c(OC)c(OC)c2)cc1 [Example 85]                    %           99.6
3  COc1cc(NS(=O)(=O)c2ccc(NC(=O)CCl)cc2)cc(OC)c1OC [Example 7]                    %           89.2
4  COc1cc(S(=O)(=O)Nc2ccc3ccn(C)c3c2)cc(OC)c1OC [Example 30]                    %           83.8

INPUT: Please report the recorded inhibition at 100 µM for COc1cc(S(=O)(=O)Nc2ccc3[nH]ccc3c2)cc(OC)c1OC [Example 31] .
OUTPUT: 95.1
